Cited source for all entries: ChEMBL document CHEMBL1201862

Tested on: OVCAR-8
EXPERIMENT SUMMARY: NCI tumour cell line growth inhibition, 48 h
Calls of active or inactive are those of the source. Rule as the data show it: active = GI50 up to about 1.1 µM and inactive = higher.
ASSAY ENDPOINT: GI50

INSERT INTO assay_data (compound, measurement_target, measured_result) VALUES
  ('Cc1cc(N(CCC#N)S(=O)(=O)c2ccccc2)ccc1/C=C1\N=C(c2ccc(Cl)cc2)OC1=O', 'OVCAR-8', '> 100 µM (inactive)'),
  ('COc1ccc2c(c1)CCc1c-2nc2cc3c(cc2c1O)OCO3', 'OVCAR-8', '> 100 µM (inactive)'),
  ('O=S(=O)(C1=CC(S(=O)(=O)c2ccccc2)CN(Cc2ccccc2)C1c1cccc2ccccc12)c1ccccc1 (stereo unspecified)', 'OVCAR-8', '> 69 µM (inactive)'),
  ('COc1nc2sc3c(c2c(=O)n1CCCSSCCCn1c(OC)nc2sc4c(c2c1=O)CCCC4)CCCC3', 'OVCAR-8', '> 100 µM (inactive)'),
  ('Cc1c2ccncc2c(C)c2c1[nH]c1ccc(Cl)cc12', 'OVCAR-8', '1.22 µM (inactive)'),
  ('C=CCCC(On1c(-c2ccc(Cl)cc2)csc1=S)c1ccccc1 (stereo unspecified)', 'OVCAR-8', '98.6 µM (inactive)'),
  ('O=C(NCC(=O)N1CCOC1=O)OCc1ccccc1', 'OVCAR-8', '> 100 µM (inactive)'),
  ('O=C1CC2CCN(C(=O)c3ccccc3)CC2CCN1 (stereo unspecified)', 'OVCAR-8', '> 100 µM (inactive)'),
  ('COc1c(O)cc(/C=C/c2cc(O)cc3c2[C@@]2(C(=O)O3)c3c(O)cc(O)cc3OC2c2cccc(O)c2)cc1O (stereo partly specified)', 'OVCAR-8', '23.7 µM (inactive)'),
  ('O=C(Nc1cccc([N+](=O)[O-])c1)C(=O)C(C(=O)c1ccccc1F)C1OC(=O)C2C=CC=CC21 (stereo unspecified)', 'OVCAR-8', '30.3 µM (inactive)'),
  ('CC1=C(C(=O)Nc2cc(=O)n(C)c(=O)n2C)C(c2ccco2)C(C(=O)Nc2cc(=O)n(C)c(=O)n2C)=C(C)N1', 'OVCAR-8', '> 100 µM (inactive)'),
  ('COc1cc(Nc2cnc3ccc(C(F)(F)F)cc3n2)cc(OC)c1OC', 'OVCAR-8', '> 100 µM (inactive)'),
  ('NC1=CN(Cc2ccccc2)C2=N/C(=C\c3ccccc3O)C(=O)N12', 'OVCAR-8', '> 100 µM (inactive)'),
  ('CCOC(=O)c1nc(C)oc1C(F)(F)F', 'OVCAR-8', '> 100 µM (inactive)'),
  ('O=P1(O)c2ccccc2CCc2ccccc21', 'OVCAR-8', '> 100 µM (inactive)'),
  ('O=[N+]([O-])c1ccc2[nH]ncc2c1Cl', 'OVCAR-8', '27.5 µM (inactive)'),
  ('CC1CCSC(N(C(=O)N(C)c2ccccc2)c2ccccc2)=N1 (stereo unspecified)', 'OVCAR-8', '> 100 µM (inactive)'),
  ('CNC(=O)NCCCC(NC(C)=O)C(=O)NCc1ccccc1 (stereo unspecified)', 'OVCAR-8', '> 100 µM (inactive)'),
  ('CCCCSC1=N/C(=C\c2ccco2)C(Cl)=N1', 'OVCAR-8', '> 100 µM (inactive)'),
  ('COC(=O)CSc1nnc(-c2ccc(O)c([N+](=O)[O-])c2)[nH]1', 'OVCAR-8', '> 100 µM (inactive)'),
  ('O=c1cc(-c2ccccc2)oc2cc(OCCSCCCCCCCCCCSCCOc3ccc4c(=O)cc(-c5ccccc5)oc4c3)ccc12', 'OVCAR-8', '> 100 µM (inactive)');

====

Test system: SF-295
EXPERIMENT SUMMARY: NCI tumour cell line growth inhibition, 48 h
Calls of active or inactive are those of the source. Rule as the data show it: active = GI50 up to about 1.1 µM and inactive = higher.
Outcomes: active, inactive

INSERT INTO results (molecule, measurement_target, assigned_class) VALUES
  ('COc1ccc(OC)c([N+](=O)[O-])c1-c1nc2sc(C)c(C)n2c1/C=N/N=C(N)N', 'SF-295', 'inactive'),
  ('O=c1oc2c/c(=C\c3ccccn3)c(=O)c3cccc1c3-2', 'SF-295', 'inactive'),
  ('CCSc1n/c(=C\c2ccc(N(C)C)cc2)c2nnnn12', 'SF-295', 'inactive'),
  ('[O-][S+](CC1(O)CCCCC1)c1ccccc1 (configuration not stated)', 'SF-295', 'inactive'),
  ('C1=Cc2nc1c(-c1ccccc1)c1nc(c(-c3ccccc3)c3ccc([nH]3)c(-c3ccccc3)c3ccc([nH]3)c2-c2ccccc2)C=C1', 'SF-295', 'inactive'),
  ('COc1ccc(OCC(=O)O)c2c1CCCC2=O', 'SF-295', 'inactive'),
  ('COC1=C(Cl)C(=O)c2c(O)ccc(O)c2C1=O', 'SF-295', 'inactive'),
  ('Cc1ccc(-c2cc[n+]3c(n2)oc2ccccc23)cc1', 'SF-295', 'inactive'),
  ('O=C(Nc1cccc([N+](=O)[O-])c1)C(=O)C(C(=O)c1ccccc1F)C1OC(=O)C2C=CC=CC21 (configuration not stated)', 'SF-295', 'inactive'),
  ('CCC(=O)N1C(=O)C(CC)(CC)C(=O)N1C(=O)CC', 'SF-295', 'inactive'),
  ('Cc1nn(C(=O)c2ccncc2)c2c1C(c1ccccc1)SC(=N)N2 (configuration not stated)', 'SF-295', 'inactive'),
  ('COc1ccc(NC2=NCCO2)c2c1CCCC2', 'SF-295', 'inactive'),
  ('O=C(NCC(=O)N1CCOC1=O)OCc1ccccc1', 'SF-295', 'inactive'),
  ('CCc1cn2c(/C=N/N=C(N)N)c(-c3cc(C)c(Cl)cc3Cl)nc2s1', 'SF-295', 'active'),
  ('O=C1CN(c2ccccc2)Cc2nc(Cl)ccc2N1', 'SF-295', 'inactive'),
  ('O=c1[nH]c(=O)n(C2CC(O)C(CO)O2)cc1C#Cc1ccc(F)cc1 (configuration not stated)', 'SF-295', 'inactive'),
  ('CN(C)CCNC(=O)c1cccc2nc3c(C(=O)NCCN(C)C)cccc3nc12', 'SF-295', 'inactive'),
  ('Oc1nc2ccccc2c2oc3ccccc3c12', 'SF-295', 'inactive'),
  ('O=C1/C(=C\c2ccccc2)C2/C(=C\c3ccccc3)C(=O)/C(=C\c3ccccc3)C2/C1=C\c1ccccc1 (configuration not stated)', 'SF-295', 'inactive'),
  ('O=C(O)CCC(NC(=O)c1ccc(Oc2nc3ccccc3nc2C(=O)O)cc1)C(=O)O (configuration not stated)', 'SF-295', 'inactive'),
  ('CC1(C)CC[C@]2(C(=O)O)CC[C@]3(C)C(=CC[C@@H]4[C@@]5(C)CC[C@H](OC6OC(CO)C(O)C(O)C6O)C(C)(C)[C@@H]5CC[C@]43C)[C@@H]2C1 (some centres not stated)', 'SF-295', 'inactive'),
  ('CC(=O)O[C@H]1[C@H](OC(C)=O)[C@@H](CN=[N+]=[N-])OCO[C@@H]1CN=[N+]=[N-]', 'SF-295', 'inactive'),
  ('O=C1c2cc3c(cc2CC1Cc1ccc2c(c1)CCC2)CCC3 (configuration not stated)', 'SF-295', 'inactive'),
  ('CC(C)(C)C1=CC(=C2C=Cc3ccccc3O2)C=C(C(C)(C)C)C1=O', 'SF-295', 'inactive'),
  ('NC1CCC(c2cc3ccccc3s2)(N2CCCCC2)CC1 (configuration not stated)', 'SF-295', 'inactive'),
  ('Cc1cc(S(=O)(=O)NC2=Nc3cccc4cccc(c34)N2)c(S)cc1Cl', 'SF-295', 'inactive'),
  ('O=C1[C@@H]2C(c3ccncc3)=NO[C@@H]2C(=O)N1c1ccc(Cc2ccc(N3C(=O)[C@H]4C(c5ccncc5)=NO[C@H]4C3=O)cc2)cc1', 'SF-295', 'inactive'),
  ('CC[C@]12C=CCN3CC[C@@]4(c5cc(Br)c(OC)cc5N(C)[C@H]4[C@@](O)(C(=O)NN)[C@@H]1O)[C@@H]32', 'SF-295', 'inactive'),
  ('CCCCCCCCCCOCCOCCOCCOCCCCC(O)CCCCCCCC1=C[C@H](C)OC1=O (some centres not stated)', 'SF-295', 'inactive'),
  ('CSc1nc(O)c2cn(Cc3ccccc3)nc2n1', 'SF-295', 'inactive'),
  ('COc1cc(OC)c(-c2oc3ccccc3c(=O)c2O)c(OC)c1', 'SF-295', 'inactive'),
  ('COCCn1cnc2c(Cl)nc(Nc3ccccc3)nc21', 'SF-295', 'inactive');

====

Tested on: DMS-114
EXPERIMENT SUMMARY: NCI tumour cell line growth inhibition, 48 h
The source made the active and inactive calls. No stated cut-off is given here; in the data, active = GI50 up to about 1.1 µM and inactive = higher.
Measured GI50 by item
ASSAY ENDPOINT: GI50

INSERT INTO assay_data (compound, measured_result) VALUES
  ('CC(=O)OC1CCn2nnc(CO[Si](C)(C)C(C)(C)C)c21 (configuration not stated)', '> 100 µM (inactive)'),
  ('CC(CN1CC(=O)NC(=O)C1)N1CC(=O)NC(=O)C1 (configuration not stated) [RAZOXANE]', '67.9 µM (inactive)'),
  ('CN(C)C(=S)/N=c1\ss/c(=N\C(=S)N(C)C)n1-c1ccc(Cl)c(Cl)c1', '> 100 µM (inactive)'),
  ('Cc1cc(N(CCC#N)S(=O)(=O)c2ccccc2)ccc1/C=C1\N=C(c2ccc(Cl)cc2)OC1=O', '> 100 µM (inactive)'),
  ('Sc1nnc(-c2ccnc(-c3nnc(S)[nH]3)c2)[nH]1', '> 100 µM (inactive)'),
  ('CCN(CC)CCNc1ccc2nnn3c4ccccc4c(=O)c1c23', '6.55 µM (inactive)'),
  ('C[n+]1c2ccccc2cc2c(CNC(CCCNC(=N)N)C(=O)O)cccc21 (configuration not stated)', '0.232 µM (active)'),
  ('Cc1ccc(NC(=O)CSc2nnc(-c3ccc(/N=C\c4ccc(Cl)cc4)cc3)o2)cc1', '> 100 µM (inactive)'),
  ('O=C(Nc1ccc(Cl)cc1)c1cc2cc(/N=N/c3ccccc3Cl)ccc2oc1=O', '5.81 µM (inactive)'),
  ('CC(C)OP(=S)(NC(=S)c1ccccc1)OC(C)C', '78 µM (inactive)'),
  ('COc1cc2c(c(OC)c1OC)-c1ccc(OC)c(=O)cc1C(NC(=O)c1ccc(N=[N+]=[N-])cc1)CC2 (configuration not stated)', '0.0257 µM (active)'),
  ('COc1ccc(OC)c(/C=C/[N+](=O)[O-])c1', '4.74 µM (inactive)');
